Where these numbers come from: the supplement of paper PMC9732359

test_method_notes: protein stability index of a GFP-peptide fusion (yeast GPS) (PSI 1-4); higher = more stable; sorted into four equal gates, so the index is relative within each strain
measurement_setup: ubr1∆
Reported protein stability index is given for each of the following sequences.
Reply with the value as a number alone.

Examples from the recorded data:
TTIKAIFDGNYGESDIH [YMR129W/POM152] = 2.89
LKFNHGNYSHLMEKNRI [REC8] = 2.52
LQFRPAPMYILDEVDAA [SMC2] = 1.89
NVDNQTSDLVKSLGLKL [RPS17A] = 3.06

Now for a further sequence.
Recorded protein stability index for KDQLPDLESMGLTQLYK [MED7] , please?
3.13
